The origin of these recorded values is ChEMBL document CHEMBL1137258.

ASSAYED TARGET: Tubulin (Bos taurus)
ASSAY INFO: Inhibition of [3H]colchicine binding to beta tubulin
pIC50: −log10 of the molar value.
PARAMETER: pIC50

Some solved cases for reference:
INSERT INTO assay_data (smiles_input, parameter, assay_result) VALUES
  ('Cc1nc(C)c(-c2csc(Nc3ccc(Br)cc3)n2)s1', 'pIC50', 6.00),
  ('Cc1nc2ccccc2n1-c1csc(Nc2ccc(Br)cc2)n1', 'pIC50', 5.90),
  ('COc1ccc(Nc2nc(-n3ccnc3C)cs2)cc1', 'pIC50', 5.10),
  ('Cc1cn(-c2csc(Nc3ccc(Br)cc3)n2)c(C)n1', 'pIC50', 5.40),
  ('Brc1ccc(Nc2nc(-n3cnc4ccccc43)cs2)cc1', 'pIC50', 4.00),
  ('COc1ccc(Nc2nc(-n3cc(C)nc3C)cs2)cc1', 'pIC50', 5.12);

I: COc1ccc(Nc2nc(-n3c(C)nc4ccccc43)cs2)cc1
II: Cc1ccc(Nc2nc(-n3cc(C)nc3C)cs2)cc1
Returns the identifier with the smallest measured pIC50 among I and II . Lab log: write the label of the selected item as the result.
II
